target_entity: human (h) α3β4 nAChR (Homo sapiens, UniProt P30926+P32297)
Construct: host or cells: Xenopus laevis oocytes, cRNA injected
Sequence (P30926 22-498): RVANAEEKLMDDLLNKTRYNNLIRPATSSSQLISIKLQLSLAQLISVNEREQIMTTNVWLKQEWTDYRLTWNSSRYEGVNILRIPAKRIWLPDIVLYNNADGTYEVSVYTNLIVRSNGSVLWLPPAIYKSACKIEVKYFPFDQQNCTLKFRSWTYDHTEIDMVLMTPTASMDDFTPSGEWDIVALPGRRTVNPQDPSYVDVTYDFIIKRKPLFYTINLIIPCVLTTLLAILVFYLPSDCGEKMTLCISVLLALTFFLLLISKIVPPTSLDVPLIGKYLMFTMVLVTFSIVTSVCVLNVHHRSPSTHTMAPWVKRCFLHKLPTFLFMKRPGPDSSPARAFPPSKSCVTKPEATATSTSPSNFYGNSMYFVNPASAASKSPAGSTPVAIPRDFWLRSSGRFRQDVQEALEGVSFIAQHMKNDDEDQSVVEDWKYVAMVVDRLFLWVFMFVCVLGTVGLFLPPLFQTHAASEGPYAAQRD
Sequence (P32297 32-505): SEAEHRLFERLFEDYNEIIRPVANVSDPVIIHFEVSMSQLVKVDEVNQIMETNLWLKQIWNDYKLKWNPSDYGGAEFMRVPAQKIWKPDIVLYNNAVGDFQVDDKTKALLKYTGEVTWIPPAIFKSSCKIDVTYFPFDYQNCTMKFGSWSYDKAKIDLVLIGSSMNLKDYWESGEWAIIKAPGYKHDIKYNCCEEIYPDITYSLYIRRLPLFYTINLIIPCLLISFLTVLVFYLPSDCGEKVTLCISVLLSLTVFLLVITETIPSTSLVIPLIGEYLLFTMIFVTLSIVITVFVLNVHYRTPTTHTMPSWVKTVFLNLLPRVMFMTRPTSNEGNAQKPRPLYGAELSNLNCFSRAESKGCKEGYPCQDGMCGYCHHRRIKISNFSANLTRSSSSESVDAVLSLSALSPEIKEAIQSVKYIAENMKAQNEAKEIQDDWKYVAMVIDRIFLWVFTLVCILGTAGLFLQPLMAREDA
run_description: Two-electrode voltage clamp, inhibition of ACh-evoked currents at hα3β4 nAChR in Xenopus oocytes
Format: cell-based
condition_details: compound 100 µM; currents activated by 300 μM ACh; ratio ACh + compound to ACh alone; mean ± SD, n = 6–11
Square brackets hold non-standard residues; d marks the D form. Peptide text beside a SMILES is read from it. Tpi = O=C(O)[C@@H]1Cc2c([nH]c3ccccc23)CN1
Label condition met when Relative current amplitude (h)α3β4 >= 0.7; otherwise condition not met.

Look over these answered cases.
>  <compound>
COC(=O)[C@@H](Cc1ccccc1)NC(=O)[C@@H](NC(=O)[C@H](NC(=O)[C@@H](N)Cc1c[nH]c2ccccc12)C(C)C)C(C)C [Compound 2, psegynamide B] (H-W[dV]V[dF]-OMe)

>  <label>
condition not met

$$$$
>  <compound>
COC(=O)[C@@H](Cc1ccc(O)cc1)NC(=O)[C@@H](NC(=O)[C@H](NC(=O)[C@@H]1Cc2c([nH]c3ccccc23)CN1)C(C)C)C(C)C [Compound 6, psegynamide F] (H-[Tpi][dV]V[dY]-OMe)

>  <label>
condition met

$$$$
>  <compound>
CC(C)[C@H](NC(=O)[C@H](NC(=O)[C@@H]1Cc2c([nH]c3ccccc23)CN1)C(C)C)C(=O)N[C@H](Cc1ccccc1)C(=O)O [Compound 4, psegynamide D]

>  <label>
condition not met

$$$$

Input: State whether the measured Relative current amplitude (h)α3β4 reaches 0.7, counting equality as reaching it, for CC(C)[C@H](NC(=O)[C@H](NC(=O)[C@@H](N)Cc1c[nH]c2ccccc12)C(C)C)C(=O)N[C@H](Cc1ccc(O)cc1)C(=O)O [Compound 3, psegynamide C] (H-W[dV]V[dY]-OH)
Output: condition not met

Input: Could you do the same for CC(C)C(NC(=O)C(N)Cc1c[nH]c2ccccc12)C(=O)NC(C(=O)NC(Cc1ccccc1)C(=O)O)C(C)C (stereo not drawn) [Compound 1, psegynamide A] (H-WVVF-OH; configuration not given here) , please?
Output: condition not met

Input: And the next one, COC(=O)[C@@H](Cc1ccccc1)NC(=O)[C@@H](NC(=O)[C@H](NC(=O)[C@@H]1Cc2c([nH]c3ccccc23)CN1)C(C)C)C(C)C [Compound 5, psegynamide E] ?
Output: condition not met

###

target_entity: human (h) α7 nAChR (Homo sapiens)
Construct: Jon Lindstrom (clone); host or cells: Xenopus laevis oocytes, cRNA injected
Sequence (P36544 23-502): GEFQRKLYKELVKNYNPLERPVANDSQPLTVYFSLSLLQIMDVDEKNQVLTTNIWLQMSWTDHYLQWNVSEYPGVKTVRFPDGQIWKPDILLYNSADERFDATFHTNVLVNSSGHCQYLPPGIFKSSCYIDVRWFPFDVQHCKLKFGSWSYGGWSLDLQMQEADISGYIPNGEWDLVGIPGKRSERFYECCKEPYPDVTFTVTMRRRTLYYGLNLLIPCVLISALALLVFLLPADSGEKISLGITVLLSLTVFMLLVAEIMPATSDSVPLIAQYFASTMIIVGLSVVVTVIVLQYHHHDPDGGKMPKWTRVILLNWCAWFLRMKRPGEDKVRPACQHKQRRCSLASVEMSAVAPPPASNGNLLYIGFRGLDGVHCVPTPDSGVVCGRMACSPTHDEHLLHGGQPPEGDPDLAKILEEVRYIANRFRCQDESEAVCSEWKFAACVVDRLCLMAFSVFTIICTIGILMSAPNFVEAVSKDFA
run_description: Two-electrode voltage clamp, inhibition of ACh-evoked currents at hα7 nAChR in Xenopus oocytes
Format: cell-based
condition_details: compound 100 µM; currents activated by 100 μM ACh; ratio ACh + compound to ACh alone; mean ± SD, n = 6–11
Square brackets hold non-standard residues; d marks the D form. Peptide text beside a SMILES is read from it. Tpi = O=C(O)[C@@H]1Cc2c([nH]c3ccccc23)CN1
Relative current amplitude (h)α7 values, listed per item
Please give the numeric answer without any surrounding text.

>  <compound>
COC(=O)[C@@H](Cc1ccccc1)NC(=O)[C@@H](NC(=O)[C@H](NC(=O)[C@@H](N)Cc1c[nH]c2ccccc12)C(C)C)C(C)C [Compound 2, psegynamide B] (H-W[dV]V[dF]-OMe)

>  <experimental_value>
0.566

$$$$
>  <compound>
CC(C)[C@H](NC(=O)[C@H](NC(=O)[C@@H]1Cc2c([nH]c3ccccc23)CN1)C(C)C)C(=O)N[C@H](Cc1ccccc1)C(=O)O [Compound 4, psegynamide D]

>  <experimental_value>
0.228

$$$$
>  <compound>
CC(C)C(NC(=O)C(N)Cc1c[nH]c2ccccc12)C(=O)NC(C(=O)NC(Cc1ccccc1)C(=O)O)C(C)C (stereo not drawn) [Compound 1, psegynamide A] (H-WVVF-OH; configuration not given here)

>  <experimental_value>
0.293

$$$$
>  <compound>
CC(C)[C@H](NC(=O)[C@H](NC(=O)[C@@H](N)Cc1c[nH]c2ccccc12)C(C)C)C(=O)N[C@H](Cc1ccc(O)cc1)C(=O)O [Compound 3, psegynamide C] (H-W[dV]V[dY]-OH)

>  <experimental_value>
0.368

$$$$
>  <compound>
COC(=O)[C@@H](Cc1ccccc1)NC(=O)[C@@H](NC(=O)[C@H](NC(=O)[C@@H]1Cc2c([nH]c3ccccc23)CN1)C(C)C)C(C)C [Compound 5, psegynamide E]

>  <experimental_value>
0.399

$$$$

Input: Requested field: Relative current amplitude (h)α7. Item: COC(=O)[C@@H](Cc1ccc(O)cc1)NC(=O)[C@@H](NC(=O)[C@H](NC(=O)[C@@H]1Cc2c([nH]c3ccccc23)CN1)C(C)C)C(C)C [Compound 6, psegynamide F] (H-[Tpi][dV]V[dY]-OMe)
Output: 0.838

###

The reader will find reported Relative current amplitude (h) α1β1εδ values listed item by item below.
target_entity: human (h) α1β1εδ nAChR (Homo sapiens, UniProt P02708+P11230+Q04844+Q07001)
Construct: host or cells: Xenopus laevis oocytes, cRNA injected
Sequence (Q04844 21-493 limits assumed, one chain of several): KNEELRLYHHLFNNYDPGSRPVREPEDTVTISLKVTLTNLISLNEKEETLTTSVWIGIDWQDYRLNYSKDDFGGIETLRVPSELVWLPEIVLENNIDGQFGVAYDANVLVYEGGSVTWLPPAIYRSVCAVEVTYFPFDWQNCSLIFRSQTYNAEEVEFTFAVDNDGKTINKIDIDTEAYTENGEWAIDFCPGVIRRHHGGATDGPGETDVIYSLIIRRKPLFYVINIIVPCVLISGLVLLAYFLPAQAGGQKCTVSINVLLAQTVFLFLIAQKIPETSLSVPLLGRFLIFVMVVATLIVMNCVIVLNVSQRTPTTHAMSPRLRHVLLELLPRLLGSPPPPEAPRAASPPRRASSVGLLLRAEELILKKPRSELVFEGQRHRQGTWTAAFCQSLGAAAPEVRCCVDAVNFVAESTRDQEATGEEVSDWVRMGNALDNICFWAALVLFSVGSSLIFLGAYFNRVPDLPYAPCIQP
run_description: Two-electrode voltage clamp, inhibition of ACh-evoked currents at hα1β1εδ nAChR in Xenopus oocytes
Format: cell-based
condition_details: compound 100 µM; currents activated by 5 μM ACh; ratio ACh + compound to ACh alone; mean ± SD, n = 6–11
Square brackets hold non-standard residues; d marks the D form. Peptide text beside a SMILES is read from it. Tpi = O=C(O)[C@@H]1Cc2c([nH]c3ccccc23)CN1
Give only the figure.

Worked cases, Relative current amplitude (h) α1β1εδ given:
>  <compound>
COC(=O)[C@@H](Cc1ccc(O)cc1)NC(=O)[C@@H](NC(=O)[C@H](NC(=O)[C@@H]1Cc2c([nH]c3ccccc23)CN1)C(C)C)C(C)C [Compound 6, psegynamide F] (H-[Tpi][dV]V[dY]-OMe)

>  <Relative current amplitude (h) α1β1εδ>
0.618

$$$$
>  <compound>
COC(=O)[C@@H](Cc1ccccc1)NC(=O)[C@@H](NC(=O)[C@H](NC(=O)[C@@H](N)Cc1c[nH]c2ccccc12)C(C)C)C(C)C [Compound 2, psegynamide B] (H-W[dV]V[dF]-OMe)

>  <Relative current amplitude (h) α1β1εδ>
0.024

$$$$

Input: Sample CC(C)C(NC(=O)C(N)Cc1c[nH]c2ccccc12)C(=O)NC(C(=O)NC(Cc1ccccc1)C(=O)O)C(C)C (stereo not drawn) [Compound 1, psegynamide A] (H-WVVF-OH; configuration not given here) — what was its Relative current amplitude (h) α1β1εδ?
Output: 0.190

###

target_entity: human (h) α1β1εδ nAChR (Homo sapiens, UniProt P02708+P11230+Q04844+Q07001)
Construct: host or cells: Xenopus laevis oocytes, cRNA injected
run_description: Two-electrode voltage clamp, inhibition of ACh-evoked currents at hα1β1εδ nAChR in Xenopus oocytes
Format: cell-based
condition_details: compound 100 µM; currents activated by 5 μM ACh; ratio ACh + compound to ACh alone; mean ± SD, n = 6–11
Square brackets hold non-standard residues; d marks the D form. Peptide text beside a SMILES is read from it.
Here, each record is paired with measured Relative current amplitude (h) α1β1εδ data.
// return a plain number; no unit text

Recorded Relative current amplitude (h) α1β1εδ, per entry:
>  <compound>
COC(=O)[C@@H](Cc1ccccc1)NC(=O)[C@@H](NC(=O)[C@H](NC(=O)[C@@H]1Cc2c([nH]c3ccccc23)CN1)C(C)C)C(C)C [Compound 5, psegynamide E]

>  <experimental_value>
0.392

$$$$
>  <compound>
CC(C)[C@H](NC(=O)[C@H](NC(=O)[C@@H](N)Cc1c[nH]c2ccccc12)C(C)C)C(=O)N[C@H](Cc1ccc(O)cc1)C(=O)O [Compound 3, psegynamide C] (H-W[dV]V[dY]-OH)

>  <experimental_value>
0.648

$$$$

Shift focus to the following entry.
Input: Return Relative current amplitude (h) α1β1εδ measured with human (h) α1β1εδ nAChR (Homo sapiens, UniProt P02708+P11230+Q04844+Q07001) given this compound: CC(C)[C@H](NC(=O)[C@H](NC(=O)[C@@H]1Cc2c([nH]c3ccccc23)CN1)C(C)C)C(=O)N[C@H](Cc1ccccc1)C(=O)O [Compound 4, psegynamide D]
Output: 0.757

###

target_entity: human (h) α1β1γδ nAChR (Homo sapiens, UniProt P02708+P07510+P11230+Q07001)
Construct: host or cells: Xenopus laevis oocytes, cRNA injected
Sequence (P11230 24-501): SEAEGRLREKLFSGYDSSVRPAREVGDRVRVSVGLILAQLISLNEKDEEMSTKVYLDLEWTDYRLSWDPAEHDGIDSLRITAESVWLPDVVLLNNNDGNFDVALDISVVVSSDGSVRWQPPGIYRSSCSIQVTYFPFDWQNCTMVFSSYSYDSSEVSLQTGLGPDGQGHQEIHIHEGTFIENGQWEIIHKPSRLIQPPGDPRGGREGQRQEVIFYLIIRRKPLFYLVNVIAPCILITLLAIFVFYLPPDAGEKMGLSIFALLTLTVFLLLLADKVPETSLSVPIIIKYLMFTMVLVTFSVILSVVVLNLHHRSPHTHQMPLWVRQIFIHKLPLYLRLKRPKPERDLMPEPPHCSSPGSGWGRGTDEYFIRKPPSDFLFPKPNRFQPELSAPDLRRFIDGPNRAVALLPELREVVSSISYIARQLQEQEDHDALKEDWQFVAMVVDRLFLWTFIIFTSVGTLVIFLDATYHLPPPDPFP
Sequence (P07510 23-517): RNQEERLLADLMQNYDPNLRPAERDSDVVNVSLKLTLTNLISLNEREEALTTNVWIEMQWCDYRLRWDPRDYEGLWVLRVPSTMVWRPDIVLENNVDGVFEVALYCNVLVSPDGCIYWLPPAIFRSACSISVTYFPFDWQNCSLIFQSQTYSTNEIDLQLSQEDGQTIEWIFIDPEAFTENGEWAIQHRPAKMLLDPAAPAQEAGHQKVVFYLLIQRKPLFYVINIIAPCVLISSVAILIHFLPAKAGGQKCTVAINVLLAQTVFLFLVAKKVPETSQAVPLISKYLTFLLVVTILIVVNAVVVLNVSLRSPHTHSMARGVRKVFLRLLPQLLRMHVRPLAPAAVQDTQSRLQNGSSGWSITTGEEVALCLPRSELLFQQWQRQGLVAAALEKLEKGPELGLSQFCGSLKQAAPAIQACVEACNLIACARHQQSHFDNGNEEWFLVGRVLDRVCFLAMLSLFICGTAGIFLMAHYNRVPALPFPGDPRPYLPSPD
Sequence (P02708 21-457): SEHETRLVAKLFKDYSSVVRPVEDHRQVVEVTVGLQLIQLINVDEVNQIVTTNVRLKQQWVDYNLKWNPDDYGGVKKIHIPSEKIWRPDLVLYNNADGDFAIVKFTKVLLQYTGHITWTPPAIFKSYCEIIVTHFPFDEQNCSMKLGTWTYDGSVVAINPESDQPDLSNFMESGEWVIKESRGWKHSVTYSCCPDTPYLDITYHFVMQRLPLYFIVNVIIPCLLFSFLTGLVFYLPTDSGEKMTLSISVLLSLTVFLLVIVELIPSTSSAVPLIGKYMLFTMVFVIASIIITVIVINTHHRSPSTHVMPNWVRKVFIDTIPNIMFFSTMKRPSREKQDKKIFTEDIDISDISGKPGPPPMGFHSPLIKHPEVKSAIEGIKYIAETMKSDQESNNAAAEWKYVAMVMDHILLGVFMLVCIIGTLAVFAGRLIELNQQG
Sequence (Q07001 22-517): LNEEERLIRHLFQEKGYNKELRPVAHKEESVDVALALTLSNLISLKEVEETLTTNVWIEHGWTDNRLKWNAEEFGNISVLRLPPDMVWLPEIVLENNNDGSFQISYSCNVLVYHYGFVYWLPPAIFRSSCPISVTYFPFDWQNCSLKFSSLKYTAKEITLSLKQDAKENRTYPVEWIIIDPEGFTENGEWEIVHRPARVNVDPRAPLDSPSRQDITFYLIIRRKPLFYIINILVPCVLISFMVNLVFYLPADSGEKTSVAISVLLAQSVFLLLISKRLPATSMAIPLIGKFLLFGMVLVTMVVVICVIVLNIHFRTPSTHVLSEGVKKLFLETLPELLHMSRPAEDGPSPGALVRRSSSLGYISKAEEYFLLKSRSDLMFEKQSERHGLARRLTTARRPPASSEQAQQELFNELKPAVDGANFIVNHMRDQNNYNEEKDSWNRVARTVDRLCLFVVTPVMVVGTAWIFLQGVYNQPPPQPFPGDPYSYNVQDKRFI
run_description: Two-electrode voltage clamp, inhibition of ACh-evoked currents at hα1β1γδ nAChR in Xenopus oocytes
Type: cell-based
condition_details: compound 100 µM; currents activated by 5 μM ACh; ratio ACh + compound to ACh alone; mean ± SD, n = 6–11
Square brackets hold non-standard residues; d marks the D form. Peptide text beside a SMILES is read from it.
property_label: Relative current amplitude (h)α1β1γδ
Lab note: record just the number, no unit beside it.

Examples with their reported Relative current amplitude (h)α1β1γδ follow.
>  <molecule>
CC(C)[C@H](NC(=O)[C@H](NC(=O)[C@@H]1Cc2c([nH]c3ccccc23)CN1)C(C)C)C(=O)N[C@H](Cc1ccccc1)C(=O)O [Compound 4, psegynamide D]

>  <experimental_value>
0.985

$$$$
>  <molecule>
COC(=O)[C@@H](Cc1ccccc1)NC(=O)[C@@H](NC(=O)[C@H](NC(=O)[C@@H](N)Cc1c[nH]c2ccccc12)C(C)C)C(C)C [Compound 2, psegynamide B] (H-W[dV]V[dF]-OMe)

>  <experimental_value>
0.017

$$$$

Okay, now this molecule:
Input: Quick check: Relative current amplitude (h)α1β1γδ of CC(C)C(NC(=O)C(N)Cc1c[nH]c2ccccc12)C(=O)NC(C(=O)NC(Cc1ccccc1)C(=O)O)C(C)C (stereo not drawn) [Compound 1, psegynamide A] (H-WVVF-OH; configuration not given here) ?
Output: 0.664
